protocol summary: Acute toxicity (LD50, intraperitoneal)
measurement parameters: rat, in vivo, ip, 5% solution pH 7.0, 7-day observation, Litchfield-Wilcoxon method
measured quantity: LD50 at 168 h (mg/kg)

>  <smiles record>
O=C(CCS)N[C@@H](Cc1c[nH]cn1)C(=O)O

>  <unit of measurement>
mg/kg

>  <measurement>
4040

$$$$
